The measurements presented in this section are drawn from patent US12358927B2.

# Test Description: Equilibrium solubility experiment for biological media and pH buffers
# Assay type: physicochemical
# Assay Conditions: aqueous buffer, thermodynamic from solid; pH = 6.00 buffer, 37° C., 24 h; pH (24 h) 5.12; white suspension; read-out: Solubility (mg/mL) _24 hr

Structure As Smiles: COC(=O)N1CCN([C@H]2CC[C@H](Nc3nc(Nc4cnn(C5CCOCC5)c4)nc4snc(C)c34)CC2)CC1
solubility at 24 h / mg/mL: 1.3

----------
# Test Description: Equilibrium solubility experiment for biological media and pH buffers
# Type: physicochemical
# Assay Conditions: pH 5.5, aqueous buffer, thermodynamic from solid; pH = 5.50 buffer, 37° C., 24 h; pH (24 h) 5.26; white suspension; read-out: Solubility (mg/mL) _24 hr

Structure As Smiles: COC(=O)N1CCN([C@H]2CC[C@H](Nc3nc(Nc4cnn(C5CCOCC5)c4)nc4snc(C)c34)CC2)CC1
solubility at 24 h (mg/mL): 0.31
